The entries below are paired with their reported activity (Tm shift, normalised).
Target: Fibroblast growth factor 22 (Homo sapiens) (UniProt Q9HCT0)
Sequence (Q9HCT0 whole entry, looked up): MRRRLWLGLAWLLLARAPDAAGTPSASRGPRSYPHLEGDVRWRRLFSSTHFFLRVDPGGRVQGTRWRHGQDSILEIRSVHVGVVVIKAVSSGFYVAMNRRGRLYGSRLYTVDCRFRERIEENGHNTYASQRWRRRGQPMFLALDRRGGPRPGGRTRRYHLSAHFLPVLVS
Assay: binders of human FGF22 protein, primary screen, FGF22 synaptogenesis inhibitor project, biophysical, thermal shift, single point (AID 651658)
Settings: recombinant FGF22 thermal shift, SYPRO orange fluorescence; at 9.99 µM; active compounds read high; percent of sucrose octasulfate shift, DMSO zero
Screen size: about 340,000 compounds; about 5,100 (1.5%) were called active. The entries come from a sample that favours actives as a whole.

| compound-string | subject-of-test | unit-string | activity (Tm shift, normalised) |
| --- | --- | --- | --- |
| O=C(C1CCCCC1)N1[C@H](CO)[C@@H](c2ccccc2)C12CN(Cc1cccc(Cl)c1)C2 | Fibroblast growth factor 22 (Homo sapiens) (UniProt Q9HCT0) | % | -0.133 |
| O=C(OCc1ccc(-c2ccccc2)cc1)c1cccc(O)c1 | Fibroblast growth factor 22 (Homo sapiens) (UniProt Q9HCT0) | % | -0.21 |
| O=C(Nc1cccc2ccccc12)c1[nH]c(-c2ccccc2)c2c1C(=O)N(C1CC1)C2=O | Fibroblast growth factor 22 (Homo sapiens) (UniProt Q9HCT0) | % | -0.298 |
| C[C@@H]1CN([C@H](C)CO)C(=O)c2cc(N(C)C)ccc2O[C@@H](C)CCCCO[C@@H]1CN(C)C(=O)CCCN(C)C | Fibroblast growth factor 22 (Homo sapiens) (UniProt Q9HCT0) | % | -0.859 |
| Cc1ccc(S(=O)(=O)N(C)C[C@@H]2Oc3c(NC(=O)c4nc5ccccc5s4)cccc3C(=O)N([C@H](C)CO)C[C@@H]2C)cc1 | Fibroblast growth factor 22 (Homo sapiens) (UniProt Q9HCT0) | % | -0.725 |

----------
The entries below are paired with their reported activity (Tm shift, normalised).
Target: Fibroblast growth factor 22 (Homo sapiens) (UniProt Q9HCT0)
Assay: binders of human FGF22 protein, primary screen, FGF22 synaptogenesis inhibitor project, biophysical, thermal shift, single point (AID 651658)
Conditions: recombinant FGF22 thermal shift, SYPRO orange fluorescence; at 9.99 µM; active compounds read high; percent of sucrose octasulfate shift, DMSO zero
Out of some 340,000 compounds screened, about 5,100 (1.5%) were called active. The sample as a whole holds a higher share of actives than the screen did.

| compound | activity (Tm shift, normalised) / % |
| --- | --- |
| CCCNC(=O)C[C@@H]1CC[C@@H]2[C@H](COc3ccc(NC(=O)c4cc(F)cc(F)c4)cc3C(=O)N2C)O1 | 0.224 |
| O=C1/C(=C/c2ccc3c(c2)OCO3)CCC/C1=C\c1ccc2c(c1)OCO2 | 26.1 |
| CN(CCc1ccccc1)C(=O)c1cccc(NC(=O)Cc2ccc([N+](=O)[O-])cc2)c1 | -0.076 |
| O=S(=O)(N[C@@H]1CC[C@H](CCn2cc(-c3ccccc3F)nn2)O[C@H]1CO)c1ccc(F)cc1 | 0.086 |
| Cc1cc(C)n(-c2ccc3nncn3n2)n1 | 43.4 |
| N#C[C@@H]1[C@@H](c2ccccc2)[C@@H](CO)N1C(=O)c1cc(Cl)cc(Cl)c1 | -0.146 |
| O=C(NC1CCCCC1)N1CC2(C1)[C@H](c1ccccc1)[C@@H](CO)N2S(=O)(=O)Cc1ccccc1 | -0.24 |
| CN1CCN(C(=O)C[C@H]2CC[C@H]3[C@@H](COC[C@H](O)CN3C(=O)c3ccc(F)cc3)O2)CC1 | 0.268 |
| O=C(COc1ccc([N+](=O)[O-])cc1)Nc1cccc(C(=O)Nc2ccccc2C(=O)O)c1 | 1.4 |
| C[C@H]1CN([C@@H](C)CO)C(=O)c2cccc(NC(=O)Nc3ccccc3)c2O[C@H]1CN(C)S(=O)(=O)c1ccc(Cl)cc1 | -0.286 |
| COc1ccc(F)c(-c2nc(CN3CCC(c4ccccc4)CC3)c(C)o2)c1 | 0.157 |
| O=C(CSCc1ccc([N+](=O)[O-])cc1)Nc1cccc(C(=O)Nc2ccccc2C(=O)O)c1 | -0.059 |
| Cc1ccc(S(=O)(=O)Nc2nc(C)cc(N/N=C/c3ccc(O)cc3)n2)cc1 | 43.2 |
| Cc1cc(C)n(-c2nnc(N3CCN(c4ccccc4)CC3)nn2)n1 | 0.536 |
| COCC(=O)N1CCCCN2[C@H](CO)[C@H](c3ccc(C#Cc4ccc(OC)cc4)cc3)[C@H]2C1 | 0.2 |
| CC(=O)Nc1ccc(/C=N/Nc2ccc(C(=O)c3c(C)cc4ccccn34)cc2[N+](=O)[O-])cc1 | -0.063 |
| O=C(Nc1ccccc1)N1C[C@@H]2[C@H](c3ccccc31)[C@H](CO)N2C(=O)c1ccccn1 | -1.73 |
| Cc1ccc(OCCCC(=O)Nc2ccc(S(=O)(=O)Nc3cc(C)nc(C)n3)cc2)cc1 | -0.115 |
| Cc1ccc(S(=O)(=O)NCCC(=O)Nc2cccc(S(N)(=O)=O)c2)cc1C | -0.18 |
| COc1ccccc1NC(=O)N1[C@H](C#N)[C@H](c2ccccc2)[C@H]1CO | 1.69 |
| Cc1cc2ccccn2c1C(=O)c1cccc(F)c1 | -0.141 |
| O=C(NN1C(=O)C2C3C=CC(O3)C2C1=O)c1ccccc1 (configuration not stated) | 1.65 |
| COc1ccccc1C(=O)Nn1c(-c2cccs2)nc2ccccc2c1=O | 43.8 |
| Cc1ccc(S(=O)(=O)Nc2nc(C)cc(-n3nc(C)cc3C)n2)cc1 | 0.134 |
| O=C(NN1C(=O)C2C3C=CC(O3)C2C1=O)c1ccncc1 (configuration not stated) | 0.125 |
| C[C@@H]1CCCCO[C@@H](CN(C)C(=O)C2CCCCC2)[C@H](C)CN([C@H](C)CO)C(=O)c2cc(NC(=O)c3ccccc3)ccc2O1 | -0.449 |
| C[C@H]1CN([C@@H](C)CO)C(=O)Cc2cc(N(C)C)ccc2O[C@@H]1CN(C)S(=O)(=O)c1ccc(F)cc1 | -0.149 |
| CC(C)NC(=O)Nc1ccc2c(c1)C(=O)N([C@@H](C)CO)C[C@H](C)[C@@H](CN(C)Cc1ccc(C(=O)O)cc1)OCCCC[C@H](C)O2 | 0.548 |
| Cc1ccc(S(=O)(=O)NCCC(=O)Nc2ccc(C)c(Cl)c2)cc1C | 1.75 |
| C[C@H](CO)N1C[C@H](C)[C@H](CN(C)Cc2ccncc2)Oc2ncc(C#CCC3CCCCC3)cc2C1=O | -0.367 |
| C[C@@H]1CN([C@@H](C)CO)C(=O)c2cc(NC(=O)Cc3ccccc3)ccc2O[C@H]1CN(C)CC1CC1 | 0.206 |
| O=C(Nc1ccccc1Cl)N1CCN(c2ccc3nncn3n2)CC1 | 0.014 |
| Cc1ccnc(NC(=O)CCNS(=O)(=O)c2ccc(C)c(C)c2)c1 | -0.078 |
| Cc1nonc1C1CCCN1Cc1nc(-c2ccc(F)cc2F)oc1C (configuration not stated) | 43.2 |
| CN(C)C(=O)C[C@@H]1CC[C@H](NC(=O)NC2CCCC2)[C@H](CO)O1 | -0.148 |
| COc1cc(OC)cc(-c2nc3ccccc3c(=O)n2NC(=O)c2cccnc2Cl)c1 | 0.323 |
| CC(C)NC(=O)N1C[C@@H]2[C@H](c3ccccc31)[C@H](CO)N2C(=O)c1ccccn1 | 16.8 |

----------
Biological target: Fibroblast growth factor 22 (Homo sapiens) (UniProt Q9HCT0)
Assay: binders of human FGF22 protein, primary screen, FGF22 synaptogenesis inhibitor project, biophysical, thermal shift, single point (AID 651658)
Settings: recombinant FGF22 thermal shift, SYPRO orange fluorescence; at 9.99 µM; percent of sucrose octasulfate shift, DMSO zero
Among all 340,000 compounds or so, about 5,100 (1.5%) were called active.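 How the source made its calls: active means mean Tm shift, scaled 0 neutral to 100 positive control, at about 1.3% or above, every replicate too (limit read from the data); inconclusive means no clear call, values can overlap the other calls; inactive means the rest.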 The full list was thinned out, with actives kept by preference.
Outcomes: Yes for active, No for inactive

| compound | subject-of-test | label-class |
| --- | --- | --- |
| Cc1ccc(C)n1NC(=O)c1ccc([N+](=O)[O-])cc1 | Fibroblast growth factor 22 (Homo sapiens) (UniProt Q9HCT0) | No |
| Cc1noc(C)c1NC(=O)N[C@H]1C=C[C@@H](CC(=O)Nc2ccccc2)O[C@H]1CO | Fibroblast growth factor 22 (Homo sapiens) (UniProt Q9HCT0) | No |
| COc1cc(NC(=O)c2cccs2)ccc1NC(=O)c1ccccc1Cl | Fibroblast growth factor 22 (Homo sapiens) (UniProt Q9HCT0) | No |
| O=C(CN(CC1CCCO1)C(=O)CNS(=O)(=O)c1ccc(Cl)cc1)NCc1ccccc1 (centres undefined) | Fibroblast growth factor 22 (Homo sapiens) (UniProt Q9HCT0) | No |
| CC(C)C(C(=O)NCc1ccco1)N(CC1CCCO1)C(=O)CNS(=O)(=O)c1ccc(F)cc1 (centres undefined) | Fibroblast growth factor 22 (Homo sapiens) (UniProt Q9HCT0) | No |
| COC(=O)[C@@H]1[C@@H](CO)[C@@H]2Cn3c(ccc(-c4ccc(OC)cc4)c3=O)[C@@H]2N1S(C)(=O)=O | Fibroblast growth factor 22 (Homo sapiens) (UniProt Q9HCT0) | No |
| C[C@H](CO)N1C[C@H](C)[C@@H](CN(C)C(=O)c2cnccn2)Oc2ncc(-c3ccccc3F)cc2C1=O | Fibroblast growth factor 22 (Homo sapiens) (UniProt Q9HCT0) | No |
| CCS(=O)(=O)N1CCC2(CC1)CN(Cc1ccc3c(c1)OCO3)[C@H](CO)c1[nH]c3cc(OC)ccc3c12 | Fibroblast growth factor 22 (Homo sapiens) (UniProt Q9HCT0) | No |
| CC(=O)NC[C@H]1[C@H](c2ccccc2)[C@@H](CO)N1C(=O)Cc1cccnc1 | Fibroblast growth factor 22 (Homo sapiens) (UniProt Q9HCT0) | No |
| CCCc1cn(CC[C@H]2CC[C@@H](NS(=O)(=O)c3ccccc3Cl)[C@@H](CO)O2)nn1 | Fibroblast growth factor 22 (Homo sapiens) (UniProt Q9HCT0) | No |
| O=C(NC[C@@H]1[C@@H](c2ccccc2)[C@H](CO)N1C(=O)Cc1cccnc1)C1CC1 | Fibroblast growth factor 22 (Homo sapiens) (UniProt Q9HCT0) | No |
| O=C(c1ccc2c(c1)N(Cc1ccc(F)cc1)C(=O)c1ccccc1S2(=O)=O)N1CCN(c2ccccn2)CC1 | Fibroblast growth factor 22 (Homo sapiens) (UniProt Q9HCT0) | Yes |
| O=C(NCC1CCCCC1)NCC1CCCCC1 | Fibroblast growth factor 22 (Homo sapiens) (UniProt Q9HCT0) | No |
| CCCC(=O)Nc1ccc2c(c1)OC[C@H](C)N(CCC(F)(F)F)C[C@@H](C)[C@H](OC)CN(C)C2=O | Fibroblast growth factor 22 (Homo sapiens) (UniProt Q9HCT0) | No |
| COCC(=O)N1CC2(C1)CN(C(=O)COC)[C@@H](CO)c1c2c2ccc(OC)cc2n1C | Fibroblast growth factor 22 (Homo sapiens) (UniProt Q9HCT0) | No |
| CC(=O)NC[C@@H]1[C@@H](c2ccccc2)[C@@H](CO)N1C(=O)Cc1cccnc1 | Fibroblast growth factor 22 (Homo sapiens) (UniProt Q9HCT0) | Yes |
| O=C1c2ccccc2S(=O)(=O)c2cc(N3CCN(c4ccccn4)CC3)ccc21 | Fibroblast growth factor 22 (Homo sapiens) (UniProt Q9HCT0) | No |
| COc1ccc2c3c([nH]c2c1)[C@H](CO)N(Cc1ccccc1)CC31CCN(C(=O)c2ccccn2)CC1 | Fibroblast growth factor 22 (Homo sapiens) (UniProt Q9HCT0) | No |
| C/C(=N\OC(=O)c1ccccc1)c1c(C)nc2cc(C)ccn12 | Fibroblast growth factor 22 (Homo sapiens) (UniProt Q9HCT0) | Yes |

Data origin, for the record: PubChem BioAssay AID651658
